Kd values by entry
- Experimental system: T1, Cμ2 (μ2 residues 160 to 435), P84092
- T1 chain: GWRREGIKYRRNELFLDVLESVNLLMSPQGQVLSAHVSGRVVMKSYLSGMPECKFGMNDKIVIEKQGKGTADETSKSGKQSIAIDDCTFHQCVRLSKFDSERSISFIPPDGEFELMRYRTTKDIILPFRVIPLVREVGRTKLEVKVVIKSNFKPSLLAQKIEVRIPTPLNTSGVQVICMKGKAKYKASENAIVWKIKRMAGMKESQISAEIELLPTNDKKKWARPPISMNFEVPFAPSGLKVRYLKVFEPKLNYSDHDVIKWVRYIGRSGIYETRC
- Protocol: ITC
- Conditions used: chain shown with the change;; parent: 25 ± 1 µM
// note: answer is a bare numeric in µM

| Binder | Kd / µM |
| --- | --- |
| FCHO2-N1+N2 (ITC), Q0JRZ9-1 Y340S (protein) NIPDVDEEGYSIKPETNQNDTKENHFSSSSDSDSEDEEPKKYRIEIKPMHPNNSHHTMASLDELKVSIGNITLSPAISRHS | 54 |

Prompt line: # input binder: NIPDVDAAGYSIAPETNQNDTKENHFYSSSDSDSEDEEPKKYR [FCHO2-N1+N2 (ITC), Q0JRZ9-1 E320A; E321A; K326A] ; wanted: its Kd
Response line: 110
